- Tested on: SNB-75 CNS
- method-summary: NCI tumour cell line growth inhibition, 48 h
Entries and their measured TGI follow.
Kindly provide the numeric value in µM only, without the unit symbol.

Qu. Please list TGI recorded for the compound C/C(=N\N=C(\[Se])N(C)C)c1ccccn1
Ans. 15.5

====

- System: NCI-H522 lung
- method-summary: NCI tumour cell line growth inhibition, 48 h
reported-endpoint: GI50

Use these answered entries as a reference point.
[[record]]
compound = "COc1cc(N2CCN(C(C)C)CC2)ccc1Nc1nc(Nc2cccc(F)c2C(=O)O)c2cc[nH]c2n1"
assay_result = "> 25000 nM"

[[record]]
compound = "O=C1C(=O)c2ccccc2C(O)=C1CCCc1ccc(C2CCCCCC2)cc1"
assay_result = "2640 nM"

[[record]]
compound = "Cc1ccc(C(SCC(N)C(=O)O)(c2ccccc2)c2ccccc2)cc1 (stereo not given)"
assay_result = "40.3 nM"

[[record]]
compound = "COC1C(OC(=O)/C=C/C=C/C=C/C=C\\C(=O)O)CCC2(CO2)C1C1(C)OC1CC=C(C)C (stereo not given)"
assay_result = "> 200000 nM"


Okay, now this compound:
Qu. Identify GI50 associated with the compound O=[n+]1c2ccccc2n([O-])c2cc(Cl)ccc21
Ans. 1470 nM
